Parameter normalized growth: see the listing below.
- Assay Notes: chemical genetic growth profiling, strain panel (AID 1159580);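 note: tested at 20 µM; growth read once vehicle control cultures reached saturation at 30 °C; 1 = growth at the plate median or of vehicle wells; lower values mean less growth of the strain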
- Condition Info: S. cerevisiae deletion strains, growth OD, locus YNL197C, strain WHI3, stronger effect = lower value
Among all 5,500 compounds or so, about 2,000 (36%) were called active. Inconclusive results (about 18%) are left out. The list shows a part of the results.
Measurement Type: normalized growth

>>> observed_measurement("CCCN(CC1CC1)c1nc(C)nc(Nc2c(Cl)cc(Cl)cc2Cl)c1Cl")
"1.13 [resistant] (active)"
>>> observed_measurement("O=C(O)CCC(=O)N1CCCC1C(=O)O (stereo unspecified)")
"0.993 (inactive)"
>>> observed_measurement("OC[C@H]1O[C@@H](n2cnc3c(NC4CCCC4)ncnc32)C(O)[C@H]1O (stereo partly specified)")
"1.04 (inactive)"
>>> observed_measurement("O=C(NCCNCC(O)COc1ccc(O)cc1)N1CCOCC1 (stereo unspecified)")
"0.993 (inactive)"
>>> observed_measurement("COC(=O)C(N)Cc1ccc(Cl)cc1 (stereo unspecified)")
"0.965 (inactive)"
>>> observed_measurement("CCCOC(=O)c1c(-c2ccccc2)nc(CC)c(C(=O)SCC)c1CCC")
"1.02 (inactive)"

* * *

- Assay Notes: chemical genetic growth profiling, strain panel (AID 1159580)
- Condition Info: S. cerevisiae deletion strains, growth OD, locus YOR106W, strain vam3, stronger effect = lower value
The whole screen tested about 5,500 compounds, of which about 2,000 (36%) were called active. Inconclusive results (about 18%) are left out. This is one part of the list.
Recorded measurements of normalized growth, one per entry
Measurement Type: normalized growth

>>> observed_measurement("CC1(C)Oc2ccc3ccc(=O)oc3c2CC1O (stereo not drawn)")
0.995
>>> observed_measurement("CO[C@H]1[C@@H](O)[C@@H](C)O[C@H](O[C@H]2CCC3(C)C4CCC5(C)[C@@H](C6=CC(=O)OC6)CC[C@]5(O)[C@@H]4CC[C@]3(O)C2)[C@@H]1O (stereo partly drawn)")
1.03
>>> observed_measurement("COC(=O)N/N=C\\c1c[n+]([O-])c2ccccc2[n+]1[O-]")
0.943
>>> observed_measurement("C[C@@H]1CCC2[C@](C)(CO)[C@@H](O)CC[C@]2(C)[C@@]12CC[C@@](CO)(CCO)O2 (stereo partly drawn)")
1.03
>>> observed_measurement("C[C@@H](CO)NC(=O)C1C=C2c3cccc4[nH]cc(c34)C[C@H]2N(C)C1 (stereo partly drawn)")
1.05
>>> observed_measurement("C/C=C(\\C)C(=O)O[C@@H]1c2c(ccc3ccc(=O)oc23)OC(C)(C)[C@@H]1OC(C)=O")
0.977
>>> observed_measurement("COc1nc(NC(C)C)nc(NC(C)C)n1")
1.02
>>> observed_measurement("COC1CC(O[C@H]2CC[C@]3(C=O)C4CC[C@]5(C)C(C6=CC(=O)OC6)CC[C@]5(O)C4CC[C@]3(O)C2)OC(C)C1O (stereo partly drawn)")
0.922
>>> observed_measurement("CCn1nc(C(=O)O)c(=O)c2cc3c(cc21)OCO3")
1.02
>>> observed_measurement("CC(C)Nc1nc(Cl)nc(NC(C)C)n1")
1.01
>>> observed_measurement("CC1(C)S[C@@H]2[C@H](NC(=O)[C@@H](N)c3ccc(O)cc3)C(=O)N2[C@H]1C(=O)O")
1
>>> observed_measurement("CC(C)(C)NCC(O)COc1cccc2c1CCCC2=O (stereo not drawn)")
0.977
>>> observed_measurement("CO[C@@H]1[C@@H](OC(N)=O)[C@@H](O)[C@H](Oc2ccc3c(O)c(NC(=O)c4ccc(O)c(CC=C(C)C)c4)c(=O)oc3c2C)OC1(C)C")
1.02
>>> observed_measurement("Cc1c(OCC(F)(F)F)ccnc1CS(=O)c1nc2ccccc2[nH]1 (stereo not drawn)")
0.991
>>> observed_measurement("CCC(=O)OCC(=O)C1(OC(=O)CC)C(C)CC2C3C(Cl)CC4=CC(=O)C=CC4(C)C3C(O)CC21C (stereo not drawn)")
1
>>> observed_measurement("NC[C@H]1O[C@H](O[C@H]2[C@H](O)[C@@H](O[C@H]3O[C@H](CO)[C@@H](O)[C@H](N)[C@H]3O)[C@H](N)C[C@@H]2N)[C@H](N)[C@@H](O)[C@@H]1O")
1.02
>>> observed_measurement("COC1=CC(C)[C@@H]2C[C@H]3OC(=O)C[C@H]4C(C)=C(OC)C(=O)C([C@@]34C)[C@@]2(C)C1=O (stereo partly drawn)")
0.992
>>> observed_measurement("CSc1nc(NC(C)C)nc(NC(C)C)n1")
0.956

* * *

Listed next: entries and their corresponding normalized growth.
- Assay Notes: chemical genetic growth profiling, strain panel (AID 1159580);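 note: tested at 20 µM; growth read once vehicle control cultures reached saturation at 30 °C; 1 = growth at the plate median or of vehicle wells; lower values mean less growth of the strain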
- Condition Info: S. cerevisiae deletion strains, growth OD, locus YJL164C, strain tpk1, stronger effect = lower value
Out of some 5,500 compounds screened, about 2,000 (36%) were called active. About 18% were inconclusive and are not listed. Some of the results follow.
Measurement Type: normalized growth

>>> observed_measurement("CCC(=O)O[C@]1(C(=O)CCl)[C@@H](C)CC2C3CCC4=CC(=O)C=C[C@]4(C)[C@@]3(F)[C@@H](O)C[C@@]21C (stereo partly drawn)")
1.03
>>> observed_measurement("NCCCC(O)(P(=O)(O)O)P(=O)(O)O")
0.996
>>> observed_measurement("CC1=C2C(O)C(=O)OC3CC4C(C)(C)C(=O)C=C[C@]4(C)C(CC1)[C@]23C (stereo partly drawn)")
1.01
>>> observed_measurement("CCCCC(=O)O[C@]1(C(=O)CO)[C@@H](C)CC2C3CCC4=CC(=O)C=C[C@]4(C)[C@@]3(F)C(O)C[C@@]21C (stereo partly drawn)")
0.988
>>> observed_measurement("CCC(=O)OCC(=O)[C@@]1(OC(=O)CC)[C@@H](C)CC2C3CCC4=CC(=O)C=C[C@]4(C)C3(F)[C@@H](O)C[C@@]21C (stereo partly drawn)")
1
>>> observed_measurement("CC(=O)O[C@@H]1CC2C(C)(CC[C@H](O)C2(C)C)C2CC[C@]3(C)C(=CC(=O)O[C@H]3c3ccoc3)C21C (stereo partly drawn)")
1
>>> observed_measurement("Cc1ncc(CO)c(CO)c1O")
1.01
>>> observed_measurement("CCC(=O)OCC(=O)C1(OC(=O)CC)C(C)CC2C3C(Cl)CC4=CC(=O)C=CC4(C)C3C(O)CC21C (stereo not drawn)")
1.07

* * *

- Assay Notes: chemical genetic growth profiling, strain panel (AID 1159580);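 note: tested at 20 µM; growth read once vehicle control cultures reached saturation at 30 °C; 1 = growth at the plate median or of vehicle wells; lower values mean less growth of the strain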
- Condition Info: S. cerevisiae deletion strains, growth OD, locus YDR001C, strain nth1, stronger effect = lower value
The campaign covered roughly 5,500 compounds. About 2,000 (36%) were called active. Inconclusive results (about 18%) are left out. This is one part of the list.
Measurement Type: normalized growth

>>> observed_measurement("CCCCCC(O)C1C(=O)OC(C)C(O)/C=C/C=C/C=C/C=C/C=C(\\C)C(O)CC(O)CC(O)CC(O)CC(O)CC(O)CC1O (stereo not drawn)")
0.983
>>> observed_measurement("C[C@H]1[C@H](C)CC[C@]2(C(=O)O)CC[C@]3(C)C(=CCC4[C@@]5(C)C[C@@H](O)[C@H](O)[C@@](C)(CO)C5[C@H](O)C[C@]43C)[C@H]12 (stereo partly drawn)")
0.969
>>> observed_measurement("CC(=O)O[C@@H]1c2c(ccc3ccc(=O)oc23)OC(C)(C)[C@@H]1OC(=O)CC(C)C")
1.01
>>> observed_measurement("COc1cc(-c2cc(=O)c3c(O)c(OC)c(OC)c(OC)c3o2)cc(OC)c1OC")
1.01
>>> observed_measurement("COc1cc(O)c2c(=O)cc(-c3ccc(OC)c(-c4c(O)cc(O)c5c(=O)cc(-c6ccc(O)cc6)oc45)c3)oc2c1")
1.02
>>> observed_measurement("CC(=O)OC1CC[C@@]2(C)C(CCC3C2CC[C@]2(C)C(C4=CC(=O)OC4)C(OC(C)=O)CC32O)C1 (stereo partly drawn)")
0.986
>>> observed_measurement("COc1ccc(-c2cc(=O)c3c(O)cc(O)cc3o2)cc1")
0.988
>>> observed_measurement("COc1cc2c(cc1OC)-c1c(oc3cc(O)cc(O)c3c1=O)CO2")
1.01

* * *

Entries and their measured normalized growth follow.
- Assay Notes: chemical genetic growth profiling, strain panel (AID 1159580);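 note: tested at 20 µM; growth read once vehicle control cultures reached saturation at 30 °C; 1 = growth at the plate median or of vehicle wells; lower values mean less growth of the strain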
- Condition Info: S. cerevisiae deletion strains, growth OD, locus YGL167C, strain pmr1, stronger effect = lower value
The campaign covered roughly 5,500 compounds. About 2,000 (36%) were called active. Roughly 18% stayed inconclusive and do not appear here. This is one part of the list.
Measurement Type: normalized growth

>>> observed_measurement("CC1(C)[C@@H]2CC[C@@]1(C)C(=O)C2")
1.01
>>> observed_measurement("CC1CCCC(C)N1NC(=O)c1ccc(Cl)c(S(N)(=O)=O)c1 (stereo not given)")
1.01
>>> observed_measurement("NCCCN")
0.983
>>> observed_measurement("O=S(=O)(O)O")
0.973
>>> observed_measurement("Cc1ccccc1N1C(=O)c2cc(S(N)(=O)=O)c(Cl)cc2NC1C (stereo not given)")
0.996
>>> observed_measurement("CCc1ccc2c(O)c3c(cc2c1C(=O)OC)C(=O)c1c(O)ccc(O)c1C3=O")
0.979
>>> observed_measurement("NC[C@@H]1O[C@H](O[C@@H]2[C@@H](CO)OC(O[C@@H]3[C@@H](O)[C@H](N)C[C@H](N)[C@H]3O[C@H]3O[C@H](CO)[C@@H](O)[C@H](O)[C@H]3N)[C@@H]2O)[C@H](N)[C@@H](O)[C@@H]1O (stereo not given in full)")
1
>>> observed_measurement("CC1(C)S[C@@H]2[C@H](NC(=O)C(C(=O)O)c3ccccc3)C(=O)N2[C@H]1C(=O)O (stereo not given in full)")
0.96
>>> observed_measurement("COc1c(O)cc2c(c1O)[C@H]1O[C@H](CO)[C@@H](O)[C@H](O)[C@@H]1OC2=O")
1.02
>>> observed_measurement("O=c1c(-c2ccc(O)cc2)coc2c(C3O[C@H](CO)[C@@H](O)[C@H](O)[C@H]3O)c(O)ccc12 (stereo not given in full)")
0.965
